The reported measurements were obtained from ChEMBL document CHEMBL1201862.

Some compounds, each annotated with its measured GI50.
system: K562; test: NCI tumour cell line growth inhibition, 48 h
Active and inactive are the calls of the source. No stated cut-off is given here; in the data, active = GI50 up to about 1.1 µM and inactive = higher.

[
  {
    "COMPOUND": "CC[C@H]1OC([C@H](O)C/C=C\\C#C[Si](C)(C)C)C/C=C\\C[C@H]1O[Si](C)(C)C(C)(C)C (stereo partly specified)",
    "GI50": "> 100 µM (inactive)"
  },
  {
    "COMPOUND": "Cc1c(/C=C2\\CC/C(=C\\c3[nH]c(C(=O)OC(C)(C)C)c(C)c3C)C2=O)[nH]c(C(=O)OC(C)(C)C)c1C",
    "GI50": "> 100 µM (inactive)"
  },
  {
    "COMPOUND": "Nc1ccc(Oc2ccc(C3(c4ccc(Oc5ccc(N)c(O)c5)cc4)C4CC5C6CC7CC5C3C(C7)C6C4)cc2)cc1O",
    "GI50": "2.19 µM (inactive)"
  },
  {
    "COMPOUND": "CC1=CC(=O)CC2(C)CCC(C(C)CC(=O)CC(C)C)CC12 (stereo unspecified)",
    "GI50": "24.5 µM (inactive)"
  },
  {
    "COMPOUND": "CCOC(=O)c1c(NCc2ccccc2)n(-c2ccccc2)c(=S)n(-c2ccccc2)c1=O",
    "GI50": "41.1 µM (inactive)"
  },
  {
    "COMPOUND": "CCOC(=O)Cc1cc(OC)c(OC)cc1/C(Cl)=C(\\CO)c1ccc(OC)c(OC)c1",
    "GI50": "> 100 µM (inactive)"
  }
]

====

Some compounds, each annotated with its measured GI50.
tested on: OVCAR-8; experiment: NCI tumour cell line growth inhibition, 48 h
Active and inactive are the calls of the source. No stated cut-off is given here; in the data, active = GI50 up to about 1.1 µM and inactive = higher.
ENDPOINT_LABEL: GI50

[
  {
    "COMPOUND": "CCN1CCCC(C#N)(c2ccccc2)CC1 (centres undefined)",
    "TESTED_ON": "OVCAR-8",
    "MEASURED_RESULT": "> 100 µM (inactive)"
  },
  {
    "COMPOUND": "c1ccc2sc(C3(N4CCCCC4)CCCC3)cc2c1",
    "TESTED_ON": "OVCAR-8",
    "MEASURED_RESULT": "10.4 µM (inactive)"
  },
  {
    "COMPOUND": "CS(=O)(=O)Nc1ccc2ccccc2c1",
    "TESTED_ON": "OVCAR-8",
    "MEASURED_RESULT": "> 100 µM (inactive)"
  },
  {
    "COMPOUND": "C=CC(=O)N1C/C(=C\\c2ccc(OC)cc2)C(=O)/C(=C/c2ccc(OC)cc2)C1",
    "TESTED_ON": "OVCAR-8",
    "MEASURED_RESULT": "2.88 µM (inactive)"
  },
  {
    "COMPOUND": "O=C1C2=Cc3ccccc3OC2(O)Oc2cc3ccccc3cc21 (centres undefined)",
    "TESTED_ON": "OVCAR-8",
    "MEASURED_RESULT": "> 100 µM (inactive)"
  },
  {
    "COMPOUND": "Nc1nc2c(ncn2CC(CO)CC(c2ccccc2)P(=O)(O)O)c(=O)[nH]1 (centres undefined)",
    "TESTED_ON": "OVCAR-8",
    "MEASURED_RESULT": "> 100 µM (inactive)"
  },
  {
    "COMPOUND": "C[C@]12CC[C@H](O)C[C@H]1CC[C@@H]1[C@@H]2CC[C@]2(C)[C@@H](C3=CC(=O)OC3)[C@@H](O)C[C@]12O",
    "TESTED_ON": "OVCAR-8",
    "MEASURED_RESULT": "2.93 µM (inactive)"
  },
  {
    "COMPOUND": "COC1Cc2c(C)c(OC(C)=O)c3cccnc3c2O1 (centres undefined)",
    "TESTED_ON": "OVCAR-8",
    "MEASURED_RESULT": "15.1 µM (inactive)"
  },
  {
    "COMPOUND": "CCOC(=O)C1CN(C2CC2)CCC1=O (centres undefined)",
    "TESTED_ON": "OVCAR-8",
    "MEASURED_RESULT": "> 100 µM (inactive)"
  },
  {
    "COMPOUND": "C=CCCON(C(=O)OC(C)(C)C)c1ccccc1",
    "TESTED_ON": "OVCAR-8",
    "MEASURED_RESULT": "> 100 µM (inactive)"
  },
  {
    "COMPOUND": "N#Cc1cc([N+](=O)[O-])ccc1NC(=O)/C(=N\\NC(=O)c1ccncc1)C(c1cnc2ccc([N+](=O)[O-])cc2n1)[N+](=O)[O-] (centres undefined)",
    "TESTED_ON": "OVCAR-8",
    "MEASURED_RESULT": "3.1 µM (inactive)"
  },
  {
    "COMPOUND": "N=C1NC(=O)N2CC12 (centres undefined) [IMEXON]",
    "TESTED_ON": "OVCAR-8",
    "MEASURED_RESULT": "> 100 µM (inactive)"
  },
  {
    "COMPOUND": "Cn1c2ccccc2c(=O)c2cccc(C(=O)NC(CS)C(=O)O)c21 (centres undefined)",
    "TESTED_ON": "OVCAR-8",
    "MEASURED_RESULT": "> 100 µM (inactive)"
  },
  {
    "COMPOUND": "C[C@H]1C(OCCOC2O[C@@H]3O[C@@]4(C)CC[C@H]5[C@H](C)CCC([C@H]2C)[C@@]35O4)O[C@@H]2O[C@@]3(C)CC[C@H]4[C@H](C)CCC1[C@@]24O3 (some centres undefined)",
    "TESTED_ON": "OVCAR-8",
    "MEASURED_RESULT": "5.3 µM (inactive)"
  }
]

====

system: HT-29; assay: NCI tumour cell line growth inhibition, 48 h
Calls of active or inactive are those of the source. Cut-off read from the data, not from the text of the source: active = GI50 up to about 1.1 µM and inactive = higher. *1 amine or outer side, *2 acyl side, *3 side chain or, on linkers, in order; H or OH if unused. Where a SMILES comes first, the peptide text is derived from it. [ ]: non-standard residue; d: D form. The star is where a group is joined. X31 = CC(=O)N(C)SCC(N[*:1])C(=O)[*:2]; Fmoc = O=C(OCC1c2ccccc2-c2ccccc21)*; For = O=C*
Outcomes: active, inactive

[
  {
    "COMPOUND": "COc1ccc(/C=N\\N2CC(=O)N3C4C=CC(CC4)N3C2=O)cc1 (centres undefined)",
    "CLASSIFICATION": "inactive"
  },
  {
    "COMPOUND": "CC1=NN(C(=O)Cc2ccccc2)C(=O)/C1=C\\c1ccc([N+](=O)[O-])cc1",
    "CLASSIFICATION": "inactive"
  },
  {
    "COMPOUND": "COc1cc(C2c3cc4c(cc3[C@@H](Nc3cccc(CO)c3)C3COC(=O)[C@H]23)OCO4)cc(OC)c1O (some centres undefined)",
    "CLASSIFICATION": "active"
  },
  {
    "COMPOUND": "COc1cc(S(=O)(=O)Nc2nc(-c3ccc(N4C(=O)/C(=C/c5ccccc5[N+](=O)[O-])N=C4c4ccccc4)cc3)cs2)ccc1Cl",
    "CLASSIFICATION": "inactive"
  },
  {
    "COMPOUND": "CCOC(=O)C1(C#N)C(c2ccccc2)CC(O)(c2ccc(OC)cc2)C(C(=O)c2ccc(OC)cc2)C1c1ccccc1 (centres undefined)",
    "CLASSIFICATION": "inactive"
  },
  {
    "COMPOUND": "FC(F)(Sc1nc2ccccc2[nH]1)c1nc2ccccc2o1",
    "CLASSIFICATION": "inactive"
  },
  {
    "COMPOUND": "Cn1/c(=N\\c2ccc(Cl)cc2)sc2ccccc21",
    "CLASSIFICATION": "inactive"
  },
  {
    "COMPOUND": "S=C(NN=C1NCCCN1)Nc1ccccc1",
    "CLASSIFICATION": "inactive"
  },
  {
    "COMPOUND": "COc1cc([C@@H]2c3cc4c(cc3[C@@H](c3c(O)cc(O)c5c3O[C@H](c3ccc(O)c(O)c3)[C@@H](O)C5)[C@H]3COC(=O)[C@H]23)OCO4)cc(OC)c1OC",
    "CLASSIFICATION": "inactive"
  },
  {
    "COMPOUND": "CCCOP(=S)(N1CC1)N1CC1",
    "CLASSIFICATION": "inactive"
  },
  {
    "COMPOUND": "CC(=O)N(C)SCC(NC(=O)C(Cc1ccccc1)NC(=O)OCC1c2ccccc2-c2ccccc21)C(=O)NC(Cc1ccccc1)C(=O)NC(Cc1cn(C=O)c2ccccc12)C(=O)NC(CCCCNC(=O)OCC1c2ccccc2-c2ccccc21)C(=O)NC(C(=O)NC(CSN(C)C(C)=O)C(=O)NC(C(N)=O)C(C)O)C(C)O (centres undefined) (Fmoc-F[X31]FW(For)K(Fmoc)T[X31]T-NH2; configuration not given here)",
    "CLASSIFICATION": "inactive"
  },
  {
    "COMPOUND": "CC(C)=CCC[C@@H](C)C1=C(O)C(=O)C(C)=C(Nc2ccccc2)C1=O",
    "CLASSIFICATION": "inactive"
  },
  {
    "COMPOUND": "CCOC(=O)c1[nH]c(COC(C)=O)c(CCCOC(C)=O)c1CCCOC(C)=O",
    "CLASSIFICATION": "inactive"
  },
  {
    "COMPOUND": "COc1ccc(/C=C/c2nnc(S)[nH]2)cc1OC",
    "CLASSIFICATION": "inactive"
  },
  {
    "COMPOUND": "O=[N+]([O-])c1ccc(/C=N/C23CC4CC(CC(C4)C2)C3)cc1",
    "CLASSIFICATION": "inactive"
  },
  {
    "COMPOUND": "Cc1n[nH]c(=O)n1/N=C/c1ccncc1",
    "CLASSIFICATION": "inactive"
  },
  {
    "COMPOUND": "CCOC(=O)c1cn(CC)c2ccc3c(c2c1=O)S(=O)(=O)C=C3",
    "CLASSIFICATION": "inactive"
  },
  {
    "COMPOUND": "Cc1cccc(N2C(=O)C(=O)C(c3nc4ccccc4s3)C(=O)C2=O)c1C",
    "CLASSIFICATION": "inactive"
  },
  {
    "COMPOUND": "CN(C)/C=C/C(=O)c1cccc(C(=O)/C=C/N(C)C)n1",
    "CLASSIFICATION": "inactive"
  },
  {
    "COMPOUND": "CCCCCCCCOCC(O)COC (centres undefined)",
    "CLASSIFICATION": "inactive"
  },
  {
    "COMPOUND": "O=c1c2ccccc2c2ccccc2c(=O)n1Cc1ccc2c(c1)OCO2",
    "CLASSIFICATION": "inactive"
  },
  {
    "COMPOUND": "O=C(NNCc1ccccc1O)c1ccccc1O",
    "CLASSIFICATION": "inactive"
  },
  {
    "COMPOUND": "ON(Cc1ccccc1)C(=S)c1ccccc1",
    "CLASSIFICATION": "inactive"
  },
  {
    "COMPOUND": "CC1OC(OC2C(Oc3cc(O)c4c(c3)O[C@H](c3ccc(O)cc3)CC4=O)OC(CO)C(O)C2O)C(O)C(O)C1O (some centres undefined)",
    "CLASSIFICATION": "inactive"
  },
  {
    "COMPOUND": "O=c1[nH]/c(=C/c2ccc(OCc3ccccc3)cn2)c(=O)[nH]/c1=C/c1cccnc1",
    "CLASSIFICATION": "active"
  },
  {
    "COMPOUND": "CNC(Cc1ccccc1)c1cccc(OC)c1O (centres undefined)",
    "CLASSIFICATION": "inactive"
  },
  {
    "COMPOUND": "O=c1oc2ccc(-n3c(=O)c4ccccc4c4ccccc4c3=O)cc2c2ccccc12",
    "CLASSIFICATION": "inactive"
  },
  {
    "COMPOUND": "C/C(CN1C(=O)c2ccccc2C1=O)=N\\NS(=O)(=O)c1cccc([N+](=O)[O-])c1",
    "CLASSIFICATION": "inactive"
  },
  {
    "COMPOUND": "Cn1c(=O)c(Cl)c(N=[N+]=[N-])c2ccccc21",
    "CLASSIFICATION": "inactive"
  }
]
